tested on: NCI-H2009; assay: relative viability (nuclei count vs DMSO), 5 days (fraction); higher = more cells survive; conditions: first compound 0.04 µM
Readout type: relative viability

• O=C(O)c1ccc(-c2c[nH]c3ncc(-c4ccccc4)cc23)cc1C1CCCC1 + O=C(CCCCCCC(=O)Nc1ccccc1)NO [Vorinostat] (partner 1 µM) = 0.719
• O=C(O)c1ccc(-c2c[nH]c3ncc(-c4ccccc4)cc23)cc1C1CCCC1 + Cc1nc(Nc2ncc(C(=O)Nc3c(C)cccc3Cl)s2)cc(N2CCN(CCO)CC2)n1 [Dasatinib] (partner 0.075 µM) = 0.322
• O=C(O)c1ccc(-c2c[nH]c3ncc(-c4ccccc4)cc23)cc1C1CCCC1 + CC(=O)Nc1cccc(-n2c(=O)n(C3CC3)c(=O)c3c(Nc4ccc(I)cc4F)n(C)c(=O)c(C)c32)c1 [Trametinib] (partner 0.02 µM) = 0.261
• O=C(O)c1ccc(-c2c[nH]c3ncc(-c4ccccc4)cc23)cc1C1CCCC1 + CCNC(=O)c1noc(-c2cc(C(C)C)c(O)cc2O)c1-c1ccc(CN2CCOCC2)cc1 [Luminespib] (partner 0.01 µM) = 1.05
• O=C(O)c1ccc(-c2c[nH]c3ncc(-c4ccccc4)cc23)cc1C1CCCC1 + Cc1cc(Nc2cc(N3CCN(C)CC3)nc(Sc3ccc(NC(=O)C4CC4)cc3)n2)n[nH]1 [Tozasertib] (partner 0.1 µM) = 0.734
• O=C(O)c1ccc(-c2c[nH]c3ncc(-c4ccccc4)cc23)cc1C1CCCC1 + N=C(N)NC(=N)NCCc1ccccc1 [Phenformin] (partner 250 µM) = 0.519
• O=C(O)c1ccc(-c2c[nH]c3ncc(-c4ccccc4)cc23)cc1C1CCCC1 + CS(=O)(=O)CCNCc1ccc(-c2ccc3ncnc(Nc4ccc(OCc5cccc(F)c5)c(Cl)c4)c3c2)o1 [Lapatinib] (partner 2 µM) = 1.06

====

Reported relative viability by item:
tested on: NCI-H441; assay: relative viability (nuclei count vs DMSO), 5 days (fraction); higher = more cells survive; conditions: first compound 0.01581 µM
Readout type: relative viability

• CC1(C)CCC(c2ccc(Cl)cc2)=C(CN2CCN(c3ccc(C(=O)NS(=O)(=O)c4ccc(N[C@H](CCN5CCOCC5)CSc5ccccc5)c(S(=O)(=O)C(F)(F)F)c4)cc3)CC2)C1 [Navitoclax] + Cc1nc(Nc2ncc(C(=O)Nc3c(C)cccc3Cl)s2)cc(N2CCN(CCO)CC2)n1 [Dasatinib] (partner 0.075 µM) = 0.639
• CC1(C)CCC(c2ccc(Cl)cc2)=C(CN2CCN(c3ccc(C(=O)NS(=O)(=O)c4ccc(N[C@H](CCN5CCOCC5)CSc5ccccc5)c(S(=O)(=O)C(F)(F)F)c4)cc3)CC2)C1 [Navitoclax] + COc1cc2c(Oc3ccc(NC(=O)C4(C(=O)Nc5ccc(F)cc5)CC4)cc3F)ccnc2cc1OCCCN1CCOCC1 [Foretinib] (partner 0.25 µM) = 1.05

====

tested on: NCI-H2126; experiment: relative viability (nuclei count vs DMSO), 5 days (fraction); higher = more cells survive; details: first compound 0.8 µM
Readout type: relative viability

- C=C1C(=O)O[C@@H](CCCCCCCC)[C@@H]1C(=O)O [C-75] + CC(C)C[C@H](NC(=O)[C@H](Cc1ccccc1)NC(=O)c1cnccn1)B(O)O [Bortezomib] (partner 0.002 µM): 1.09
- C=C1C(=O)O[C@@H](CCCCCCCC)[C@@H]1C(=O)O [C-75] + COc1cc2c(Oc3ccc(NC(=O)C4(C(=O)Nc5ccc(F)cc5)CC4)cc3F)ccnc2cc1OCCCN1CCOCC1 [Foretinib] (partner 0.25 µM): 1.2
- C=C1C(=O)O[C@@H](CCCCCCCC)[C@@H]1C(=O)O [C-75] + CC(=O)Nc1cccc(-n2c(=O)n(C3CC3)c(=O)c3c(Nc4ccc(I)cc4F)n(C)c(=O)c(C)c32)c1 [Trametinib] (partner 0.02 µM): 0.581
- Oc1nc(-c2ccc(C(F)(F)F)cc2)nc2c1CSCC2 [XAV939] + Cc1nc(Nc2ncc(C(=O)Nc3c(C)cccc3Cl)s2)cc(N2CCN(CCO)CC2)n1 [Dasatinib] (partner 0.075 µM): 0.405
- Oc1nc(-c2ccc(C(F)(F)F)cc2)nc2c1CSCC2 [XAV939] + Cc1cc(Nc2cc(N3CCN(C)CC3)nc(Sc3ccc(NC(=O)C4CC4)cc3)n2)n[nH]1 [Tozasertib] (partner 0.1 µM): 0.778
- C=C1C(=O)O[C@@H](CCCCCCCC)[C@@H]1C(=O)O [C-75] + CS(=O)(=O)N1CCN(Cc2cc3nc(-c4cccc5[nH]ncc45)nc(N4CCOCC4)c3s2)CC1 [Pictilisib] (partner 1 µM): 0.471
- Oc1nc(-c2ccc(C(F)(F)F)cc2)nc2c1CSCC2 [XAV939] + CCNC(=O)c1noc(-c2cc(C(C)C)c(O)cc2O)c1-c1ccc(CN2CCOCC2)cc1 [Luminespib] (partner 0.01 µM): 0.869
- Oc1nc(-c2ccc(C(F)(F)F)cc2)nc2c1CSCC2 [XAV939] + CC(=O)Nc1cccc(-n2c(=O)n(C3CC3)c(=O)c3c(Nc4ccc(I)cc4F)n(C)c(=O)c(C)c32)c1 [Trametinib] (partner 0.02 µM): 0.478
- C=C1C(=O)O[C@@H](CCCCCCCC)[C@@H]1C(=O)O [C-75] + C[C@]1(O)C[C@@H](c2nc(-c3ccc4ccc(-c5ccccc5)nc4c3)c3c(N)nccn32)C1 [Linsitinib] (partner 1 µM): 0.703

All figures here come from the supplement of paper PMC10307832.
